System: mitochondrial spare respiratory capacity in PC-3 cells
EXPERIMENT SUMMARY: Oxygen consumption rate / spare respiratory capacity in PC-3 cells
CONDITION SUMMARY: read-out: Mean CC50 ± SD causing Mitochondrial toxicity: Respiration; PC-3 cells, spare respiratory capacity, 3 days
READOUT LABEL: CC50

# GIVEN SMILES, READOUT LABEL, REPORTED
measured = [
    ("Nc1ccn([C@H]2CC[C@@H](CO)O2)c(=O)n1", "CC50", "210 nM"),
]

---

Below: a set of entries, each annotated with reported CC50 at 5 days.
EXPERIMENT SUMMARY: Cytotoxicity in Huh7 cells, 5-day treatment (CellTiter Glo)
CONDITION SUMMARY: human, Huh-7 cells

# COMPOUND, CC50 at 5 days
records = [
    ("C[C@@]1(O)[C@H](O)[C@@H](CO)O[C@H]1n1ccc(N)nc1=O", "> 89 µM"),
    ("[N-]=[N+]=N[C@]1(CO)O[C@@H](n2ccc(N)nc2=O)[C@H](O)[C@@H]1O", "> 89 µM"),
    ("CCOc1nc(N)nc2c1ncn2[C@@H]1O[C@@H]2COP(=O)(OC(C)C)O[C@H]2[C@@]1(C)F (stereo partly drawn)", "> 89 µM"),
    ("O=C(N[C@H](CO)[C@H](O)c1ccc([N+](=O)[O-])cc1)C(Cl)Cl", "> 89 µM"),
    ("COc1ccc(C[C@H](N)C(=O)N[C@H]2[C@@H](O)[C@H](n3cnc4c(N(C)C)ncnc43)O[C@@H]2CO)cc1", "0.52 µM"),
    ("C[C@@]1(F)[C@H](O)[C@@H](CO)O[C@H]1n1ccc(N)nc1=O", "> 89 µM"),
]
